Data provenance: patent US20110288003A1

target_or_system: glucagon receptor (UniProt P47871 26-477, limits assumed)
Sequence (P47871 26-477 limits assumed): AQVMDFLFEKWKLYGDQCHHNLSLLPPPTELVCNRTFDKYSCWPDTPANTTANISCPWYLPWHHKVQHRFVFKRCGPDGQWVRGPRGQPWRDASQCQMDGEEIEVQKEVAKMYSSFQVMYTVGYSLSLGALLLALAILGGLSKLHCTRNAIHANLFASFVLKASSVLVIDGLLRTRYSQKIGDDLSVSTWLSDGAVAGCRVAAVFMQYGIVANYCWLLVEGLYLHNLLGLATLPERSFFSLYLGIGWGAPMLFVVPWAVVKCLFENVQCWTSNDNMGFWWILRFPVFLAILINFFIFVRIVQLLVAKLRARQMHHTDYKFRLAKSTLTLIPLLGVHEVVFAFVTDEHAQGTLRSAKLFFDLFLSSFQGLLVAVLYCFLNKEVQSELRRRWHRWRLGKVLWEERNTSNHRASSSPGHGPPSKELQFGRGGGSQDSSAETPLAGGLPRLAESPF
test_description: cell-based or functional assay
Bridge positions count the residues as written; N and C are the ends. Ends that are not written are not given here. PLA = phenyl lactic acid
parameter_measured: Glu IC50 (nM)
Answer format: numeric, nM implied, no suffix.

Please review the entries below; each comes with its answer.
binder | value
FTSDYSKYLDERRAQDFVQWLMNTGPSSGAPPPS (lactam 7-11) [D9, K12E16(Lactam) glucagon(6-39) (Table 13, peptide 4)] | 828
FTSEYSKYLDERRAQDFVQWLMNTGPSSGAPPPS [E9, K12, E16 glucagon(6-39) (Table 13, peptide 1)] | 762
{PLA}-TSEYSKYLDERRAQDFVQWLMNTGPSSGAPPPS (lactam 6-10) [[PLA6, E9, K12E16(Lactam) glucagon(6-39) (Table 13, peptide 5)] | 72
FTSEYSKYLDERRAKDFVQWLMNTGPSSGAPPPS (lactam 11-15) [E9, E16K20(lactam) glucagon(6-39) (Table 13, peptide 3)] | 42

Let us move to another entry and its Glu IC50.
Requested field: Glu IC50. Item: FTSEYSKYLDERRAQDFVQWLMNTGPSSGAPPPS (lactam 7-11) [E9, K12E16(lactam) glucagon(6-39) (Table 13, peptide 2)]
2010
